B1: FERM and PDZ domain-containing protein 4, residues 75 to 154; numbered along this chain, Q14CM0 (parent)
chain: APRKVEMRRDPVLGFGFVAGSEKPVVVRSVTPGGPSEGKLIPGDQIVMINDEPVSAAPRERVIDLVRSCKESILLTVIQP

Variants of: B1
Assay Info: abundance fitness (aPCA) (normalised: wild type 0, dead -1); higher = more abundant; growth selection in yeast, the domain comes from the species named
Condition Info: Homo sapiens
Recorded Metric: abundance fitness

P2V    -0.049
C69Q    -0.034
R67N    0.017
L74C    0.038
D10Q    -0.32
S36G    -0.05
P58W    -0.474
P58R    -0.063
R3I    -0.099
S68I    -0.214
N50C    -0.2
L74I    0.145
E37Y    -0.044
D64L    -0.466
G34S    -0.001
A19I    0.021
V27W    -1.1
L75Y    -0.749
N50M    -0.187
F17E    -0.832
L75S    -0.558
F17H    -0.806
V25R    -0.326
V66Y    -0.382
V12Y    -0.065
R61K    -0.01
R3L    -0.238
I41V    -0.009
G20E    0.01
V47F    -0.118
R9P    -0.086
A1W    -0.569
N50H    -0.11
R61T    -0.037
E37F    -0.103
A57G    -0.233
G33W    -0.228
G38I    -0.651
P11Q    -0.131
L75Q    -0.542
D51T    -0.079
T76W    -0.18
I63N    0.034
P53K    -0.003
V54F    -0.692
V18I    -0.01
A1Q    -0.704
G33S    -0.088
I41F    0.043
G43P    -0.958
K39F    -0.036
P24I    -0.777
G14K    -0.247
V66T    -0.18
P53Q    -0.035
T31G    -0.222
S72C    -0.111
R9C    -0.19
E52D    -0.071
V77K    -0.523
D64I    -0.788
D64G    -0.038
M48A    0.044
E60W    -0.112
R9Y    -0.089
D44G    -0.73
R59G    -0.007
V27F    -0.79
R28A    -0.032
D51A    -0.087
N50P    -0.919
E52F    -0.083
V62S    -0.666
M7A    -0.213
G14I    -0.719
A57R    -0.12
V30I    -0.081
S72F    -0.167
E52M    -0.038
R9H    -0.227
T76S    -0.047
Q45T    -0.105
T31L    -0.168
S72R    -0.019
D44M    -0.186
P42T    -0.058
D64P    -0.51
I63C    -0.093
V26I    -0.025
V62Q    -0.745
L65P    -0.841

These measurements were taken from the Human Domainome abundance scans (Beltran et al. 2025).
